Assay: Inhibition of crude canine cardiac c-AMP phosphodiesterase
Set-up: species or system Canis lupus familiaris
measured metric: IC50 (µM)

Examples from the recorded data:
[[record]]
compound = "O=C1CCc2cc(-n3ccnc3)ccc2N1"
val = 71

[[record]]
compound = "Cc1nc(=O)c(C#N)c(NCc2cccnc2)[nH]1 [PELRINONE]"
val = 4

[[record]]
compound = "CCc1[nH]c(O)nc1C(=O)c1ccccc1"
val = 54


(a) CCc1[nH]c(O)nc1C(=O)c1ccc(-n2ccnc2)cc1
(b) COc1ccc(C(=O)N2CCN(c3ccc4c(c3)CCC(=O)N4)CC2)cc1OC [VESNARINONE]
(c) Cc1nc(O)c(C#N)c(NCCc2c[nH]cn2)n1
Order field: IC50 | Direction: descending (largest first) List the labels according to the requested ordering.
b, c, a
(b: 32 µM, c: 4 µM, a: 2 µM)

----------
Tested on: cAMP phosphodiesterase (Canis familiaris)
Test: Inhibition of crude canine cardiac c-AMP phosphodiesterase at 100 uM
Details: Canis lupus familiaris
measured metric: inhibition (%)

[[record]]
smiles_record = "CC(=O)c1ccc(-n2ccnc2C)cc1"
assay_system = "cAMP phosphodiesterase (Canis familiaris)"
measured_metric = "inhibition"
val = 15


(P) CCc1[nH]c(O)nc1C(=O)NCCCn1ccnc1
(Q) CCc1[nH]c(O)nc1C(=O)OC
(R) CCc1[nH]c(O)nc1C(=O)NCCc1c[nH]cn1
Which order do these items take when sorted by rising inhibition? List them. List the labels according to the requested ordering.
P, Q, R
